Cited source for all entries: patent US11306101B2

- Assay Target: CK1α (Homo sapiens, UniProt P48729+Q96SW2)
- Construct: expressed in transfected cells
- Sequence (P48729 whole entry): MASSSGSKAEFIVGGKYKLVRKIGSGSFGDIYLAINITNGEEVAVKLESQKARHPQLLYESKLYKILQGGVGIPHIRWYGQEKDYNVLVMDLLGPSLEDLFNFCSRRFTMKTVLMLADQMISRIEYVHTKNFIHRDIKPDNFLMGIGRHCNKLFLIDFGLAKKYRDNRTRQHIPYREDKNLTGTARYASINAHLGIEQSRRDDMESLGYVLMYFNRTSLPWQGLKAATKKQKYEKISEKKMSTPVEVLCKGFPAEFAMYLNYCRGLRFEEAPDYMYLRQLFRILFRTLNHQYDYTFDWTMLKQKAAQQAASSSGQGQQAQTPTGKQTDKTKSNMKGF
- Sequence (Q96SW2 whole entry): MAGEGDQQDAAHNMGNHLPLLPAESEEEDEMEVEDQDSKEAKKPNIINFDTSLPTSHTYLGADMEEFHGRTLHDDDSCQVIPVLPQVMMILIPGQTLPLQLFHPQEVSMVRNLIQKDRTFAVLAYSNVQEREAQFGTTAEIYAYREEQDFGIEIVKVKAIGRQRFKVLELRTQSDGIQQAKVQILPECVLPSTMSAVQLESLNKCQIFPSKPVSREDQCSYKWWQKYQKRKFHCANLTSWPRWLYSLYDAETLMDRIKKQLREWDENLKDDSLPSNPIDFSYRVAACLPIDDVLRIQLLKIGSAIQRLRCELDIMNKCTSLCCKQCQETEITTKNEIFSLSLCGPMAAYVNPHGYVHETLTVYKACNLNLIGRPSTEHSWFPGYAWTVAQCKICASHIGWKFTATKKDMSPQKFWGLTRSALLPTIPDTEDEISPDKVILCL
- Sequence (Q16531 whole entry partner): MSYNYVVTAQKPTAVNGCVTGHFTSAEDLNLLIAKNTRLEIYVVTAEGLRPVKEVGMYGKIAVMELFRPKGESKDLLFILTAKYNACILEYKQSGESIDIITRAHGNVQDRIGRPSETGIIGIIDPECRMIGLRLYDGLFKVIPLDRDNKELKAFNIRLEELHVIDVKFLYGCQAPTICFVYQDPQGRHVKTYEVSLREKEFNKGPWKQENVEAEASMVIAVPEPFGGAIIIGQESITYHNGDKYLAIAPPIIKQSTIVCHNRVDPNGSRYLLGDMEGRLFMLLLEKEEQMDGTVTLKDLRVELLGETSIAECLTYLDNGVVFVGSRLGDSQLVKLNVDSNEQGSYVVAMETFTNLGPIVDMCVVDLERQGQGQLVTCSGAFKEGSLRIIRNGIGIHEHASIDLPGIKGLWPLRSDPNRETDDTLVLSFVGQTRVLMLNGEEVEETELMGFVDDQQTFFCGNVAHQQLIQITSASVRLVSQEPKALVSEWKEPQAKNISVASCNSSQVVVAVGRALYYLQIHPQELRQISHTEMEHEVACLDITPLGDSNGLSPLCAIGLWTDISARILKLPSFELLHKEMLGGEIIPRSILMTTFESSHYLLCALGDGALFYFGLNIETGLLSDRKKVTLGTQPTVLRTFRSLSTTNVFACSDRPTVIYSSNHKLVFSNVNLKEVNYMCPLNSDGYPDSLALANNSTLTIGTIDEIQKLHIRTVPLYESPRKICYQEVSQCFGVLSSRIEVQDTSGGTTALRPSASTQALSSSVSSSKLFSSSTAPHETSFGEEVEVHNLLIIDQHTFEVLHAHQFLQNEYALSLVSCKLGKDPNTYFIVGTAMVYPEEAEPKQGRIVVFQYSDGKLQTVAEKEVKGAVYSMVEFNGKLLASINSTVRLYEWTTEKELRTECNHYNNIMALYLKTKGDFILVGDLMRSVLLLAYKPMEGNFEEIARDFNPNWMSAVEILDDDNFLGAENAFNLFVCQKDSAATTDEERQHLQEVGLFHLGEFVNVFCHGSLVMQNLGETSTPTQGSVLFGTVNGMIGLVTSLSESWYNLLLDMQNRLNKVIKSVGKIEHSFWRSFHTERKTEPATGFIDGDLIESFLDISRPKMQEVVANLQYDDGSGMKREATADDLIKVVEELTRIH
- Experiment Summary: CK1α ePL degradation assay in MDS-L cells
- Assay type: cell-based
- Test Context: concentration giving 50% CK1α degradation vs DMSO control; MDS-L cells expressing ePL-tagged CK1α
Measured Parameter: DC50

Cc1cccnc1[C@@H](NC(=O)c1ccc2c(c1)CN(C1CCC(=O)NC1=O)C2=O)C(F)(F)F (stereo partly drawn) ... < 100 nM
O=C1CCC(N2Cc3cc(C(=O)N[C@H](c4ccccc4F)C(F)(F)F)c(F)cc3C2=O)C(=O)N1 (stereo partly drawn) ... 100 to 500 nM
O=C1CCC(N2Cc3c(ccc(C(=O)N[C@H](c4ncc(F)cc4Cl)C(F)(F)F)c3F)C2=O)C(=O)N1 (stereo partly drawn) ... < 100 nM
Cc1cccc([C@@H](NC(=O)c2ccc3c(c2F)CN(C2CCC(=O)NC2=O)C3=O)C(F)(F)F)c1 (stereo partly drawn) ... < 100 nM
O=C1CCC(N2Cc3cc(C(=O)N[C@H](c4ccccc4N4CCOCC4)C(F)(F)F)ccc3C2=O)C(=O)N1 (stereo partly drawn) ... < 100 nM
CN(C)Cc1cnc([C@@H](NC(=O)c2ccc3c(c2)CN(C2CCC(=O)NC2=O)C3=O)C(F)(F)F)c(Cl)c1 (stereo partly drawn) ... < 100 nM

[ask] Please report the recorded DC50 for O=C1CCC(N2Cc3cc(C(=O)N[C@@H](CC(F)(F)F)c4ccc(Cl)cc4)ccc3C2=O)C(=O)N1 (stereo partly drawn) .
[reply] 500 to 1000 nM

[ask] Item O=C1CCC(N2Cc3cc(C(=O)N[C@H](c4ccccc4OC(F)(F)F)C(F)(F)F)ccc3C2=O)C(=O)N1 (stereo partly drawn) has what recorded DC50?
[reply] < 100 nM

[ask] Fill in: DC50 of O=C1CCC(N2Cc3c(ccc(C(=O)N[C@H](c4ccccc4Cl)C(F)(F)F)c3F)C2=O)C(=O)N1 (stereo partly drawn) is ___
[reply] < 100 nM

[ask] Recorded DC50 for CC(C)[C@@H](NC(=O)c1ccc2c(c1)CN(C1CCC(=O)NC1=O)C2=O)c1ccccc1 (stereo partly drawn) , please?
[reply] < 100 nM

[ask] Could you share which DC50 value was measured for O=C1CCC(N2Cc3cc(C(=O)N[C@H](c4ccccc4Oc4ccccc4)C(F)(F)F)ccc3C2=O)C(=O)N1 (stereo partly drawn) ?
[reply] < 100 nM

[ask] Reported DC50 for O=C1CCC(N2Cc3cc(C(=O)N[C@H](CC(F)(F)F)c4cccc(F)c4)ccc3C2=O)C(=O)N1 (stereo partly drawn) : what is it?
[reply] < 100 nM

[ask] Consider the molecule shown here: C[C@H](NC(=O)c1ccc2c(c1)CN(C1CCC(=O)NC1=O)C2=O)c1ccc(Cl)cc1F (stereo partly drawn) What is its recorded DC50?
[reply] < 100 nM

[ask] I would be grateful if you could share the reported DC50 for C[C@H](NC(=O)c1ccc2c(c1)CN(C1CCC(=O)NC1=O)C2=O)c1cccc(C#N)c1 (stereo partly drawn) .
[reply] 100 to 500 nM

[ask] What value of DC50 has been recorded for this entry: O=C1CCC(N2Cc3c(ccc(C(=O)N[C@H](c4ncccc4F)C(F)(F)F)c3F)C2=O)C(=O)N1 (stereo partly drawn)
[reply] 100 to 500 nM

* * *

- Assay Target: CK1α (Homo sapiens, UniProt P48729+Q96SW2)
- Construct: expressed in transfected cells
- Experiment Summary: CK1α ePL degradation assay in MDS-L cells
- Format: cell-based
- Test Context: concentration giving 50% CK1α degradation vs DMSO control; MDS-L cells expressing ePL-tagged CK1α
Measured Parameter: DC50

O=C1CCC(N2Cc3cc(C(=O)N[C@H](c4ccc(CN5CC6(COC6)C5)cc4)C(F)(F)F)ccc3C2=O)C(=O)N1 (some centres unmarked) [Example 179] ... 100 to 500 nM
O=C1CCC(N2Cc3cc(C(=O)N[C@H](c4ccc(Cl)cc4F)C(F)(F)F)ccc3C2=O)C(=O)N1 (some centres unmarked) [Example 79] ... < 100 nM
O=C1CCC(N2Cc3cc(C(=O)N[C@H](c4ccc(F)c(F)c4)C(F)(F)F)ccc3C2=O)C(=O)N1 (some centres unmarked) [Example 73] ... < 100 nM

[ask] Which DC50 reading was recorded for the compound O=C1CC[C@@H](N2Cc3cc(C(=O)N[C@H](c4ccc(F)cc4)C(F)(F)F)ccc3C2=O)C(=O)N1 [Example 104] ?
[reply] < 100 nM

[ask] Quick check: DC50 of CC[C@H](NC(=O)c1ccc2c(c1)CN(C1CCC(=O)NC1=O)C2=O)c1ccccc1 (some centres unmarked) [Example 6] ?
[reply] < 100 nM

[ask] Query: DC50; subject: O=C1CCC(N2Cc3cc(C(=O)N[C@H](c4c(F)cc(F)cc4Cl)C(F)(F)F)ccc3C2=O)C(=O)N1 (some centres unmarked) [Example 203]
[reply] < 100 nM

[ask] Report DC50 for C[C@H](NC(=O)c1ccc2c(c1)CN(C1CCC(=O)NC1=O)C2=O)c1ccc(F)cc1Cl (some centres unmarked) [Example 59] please.
[reply] < 100 nM

* * *

- Assay Target: CK1α (Homo sapiens, UniProt P48729+Q96SW2)
- Construct: expressed in transfected cells
- Experiment Summary: CK1α ePL degradation assay in MDS-L cells
- Assay type: cell-based
- Test Context: concentration giving 50% CK1α degradation vs DMSO control; MDS-L cells expressing ePL-tagged CK1α
Parameter: DC50. Scope: all listed entries.

[ask] Fill in: DC50 of O=C1CCC(N2Cc3cc(C(=O)N[C@H](c4ccccc4C(F)(F)F)C(F)(F)F)ccc3C2=O)C(=O)N1 (some centres unmarked) is ___
[reply] < 100 nM

[ask] Need DC50 of COc1cccc([C@@H](NC(=O)c2ccc3c(c2)CN(C2CCC(=O)NC2=O)C3=O)C(F)(F)F)c1 (some centres unmarked) , thanks.
[reply] < 100 nM

[ask] Entry under review: COc1cccnc1[C@@H](NC(=O)c1ccc2c(c1)CN(C1CCC(=O)NC1=O)C2=O)C(F)(F)F (some centres unmarked) . Reported DC50?
[reply] < 100 nM

[ask] Request the reported DC50 associated with O=C1CCC(N2Cc3cc(C(=O)N[C@H](c4ccc(Cl)cc4)C(F)(F)F)c(F)cc3C2=O)C(=O)N1 (some centres unmarked)
[reply] < 100 nM

[ask] Please look up its DC50: O=C1CCC(N2Cc3c(ccc(C(=O)N[C@H](c4ccc(F)cc4F)C(F)(F)F)c3F)C2=O)C(=O)N1 (some centres unmarked)
[reply] < 100 nM

[ask] # input molecule: C[C@@H](NC(=O)c1ccc2c(c1)CN(C1CCC(=O)NC1=O)C2=O)C1CCCCC1 (some centres unmarked) ; wanted: its DC50
[reply] < 100 nM

[ask] Consider the molecule shown here: O=C1CCC(N2Cc3cc(C(=O)N[C@H](c4cc(C(F)(F)F)ccn4)C(F)(F)F)ccc3C2=O)C(=O)N1 (some centres unmarked) What is its recorded DC50?
[reply] < 100 nM

[ask] May I ask what DC50 has been recorded for O=C1CCC(N2Cc3cc(C(=O)N[C@H](C4CCOCC4)C(F)(F)F)ccc3C2=O)C(=O)N1 (some centres unmarked) ?
[reply] 100 to 500 nM

[ask] Give the measured DC50 of O=C1CCC(N2Cc3cc(C(=O)N[C@H](CC(F)(F)F)c4ccccc4)ccc3C2=O)C(=O)N1 (some centres unmarked) .
[reply] 100 to 500 nM

[ask] // DC50 lookup, key: O=C1CCC(N2Cc3cc(C(=O)N[C@H](c4ccc(F)cc4F)C(F)(F)F)ccc3C2=O)C(=O)N1 (some centres unmarked)
[reply] < 100 nM

[ask] What value of DC50 has been recorded for this entry: Cn1cc([C@@H](NC(=O)c2ccc3c(c2)CN(C2CCC(=O)NC2=O)C3=O)C(F)(F)F)cn1 (some centres unmarked)
[reply] 100 to 500 nM

[ask] Give the measured DC50 of O=C1CCC(N2Cc3cc(C(=O)N[C@H](c4ccncc4)C(F)(F)F)ccc3C2=O)C(=O)N1 (some centres unmarked) .
[reply] 500 to 1000 nM

* * *

- Assay Target: CK1α (Homo sapiens, UniProt P48729+Q96SW2)
- Construct: expressed in transfected cells
- Experiment Summary: CK1α ePL degradation assay in MDS-L cells
- Assay type: cell-based
- Test Context: concentration giving 50% CK1α degradation vs DMSO control; MDS-L cells expressing ePL-tagged CK1α
Measured Parameter: DC50

Known DC50 results, listed for orientation:
O=C1CCC(N2Cc3cc(C(=O)N[C@H](c4ccc(CN5CC(F)(F)C5)cc4)C(F)(F)F)ccc3C2=O)C(=O)N1 (stereo partly shown) [Example 188] ... 100 to 500 nM
O=C1CCC(N2Cc3cc(C(=O)N[C@H](c4cccc(F)c4)C(F)(F)F)ccc3C2=O)C(=O)N1 (stereo partly shown) [Example 37] ... < 100 nM
O=C1CCC(N2Cc3c(ccc(C(=O)N[C@H](c4ccc(OC(F)(F)F)cc4)C(F)(F)F)c3F)C2=O)C(=O)N1 (stereo partly shown) [Example 135] ... 100 to 500 nM
O=C1CCC(N2Cc3cc(C(=O)N[C@H](c4ccccn4)C(F)(F)F)ccc3C2=O)C(=O)N1 (stereo partly shown) [Example 48] ... 100 to 500 nM

[ask] Param readout = DC50; param system = CK1α (Homo sapiens, UniProt P48729+Q96SW2); param query = O=C1CCC(N2Cc3c(ccc(C(=O)N[C@H](c4cccc(C(F)(F)F)c4)C(F)(F)F)c3F)C2=O)C(=O)N1 (stereo partly shown) [Example 97] ; response: value
[reply] 100 to 500 nM

[ask] Which DC50 is reported with CK1α (Homo sapiens, UniProt P48729+Q96SW2) for this entry: O=C1CC[C@H](N2Cc3cc(C(=O)N[C@H](c4ncccc4Cl)C(F)(F)F)ccc3C2=O)C(=O)N1 [Example 173] ?
[reply] < 100 nM

[ask] Item O=C1CCC(N2Cc3cc(C(=O)N[C@H](c4cncnc4)C(F)(F)F)ccc3C2=O)C(=O)N1 (stereo partly shown) [Example 66] with CK1α (Homo sapiens, UniProt P48729+Q96SW2) - DC50?
[reply] 500 to 1000 nM
